biological target: Factor X (FX), P00742
Sequence (P00742 whole entry, looked up): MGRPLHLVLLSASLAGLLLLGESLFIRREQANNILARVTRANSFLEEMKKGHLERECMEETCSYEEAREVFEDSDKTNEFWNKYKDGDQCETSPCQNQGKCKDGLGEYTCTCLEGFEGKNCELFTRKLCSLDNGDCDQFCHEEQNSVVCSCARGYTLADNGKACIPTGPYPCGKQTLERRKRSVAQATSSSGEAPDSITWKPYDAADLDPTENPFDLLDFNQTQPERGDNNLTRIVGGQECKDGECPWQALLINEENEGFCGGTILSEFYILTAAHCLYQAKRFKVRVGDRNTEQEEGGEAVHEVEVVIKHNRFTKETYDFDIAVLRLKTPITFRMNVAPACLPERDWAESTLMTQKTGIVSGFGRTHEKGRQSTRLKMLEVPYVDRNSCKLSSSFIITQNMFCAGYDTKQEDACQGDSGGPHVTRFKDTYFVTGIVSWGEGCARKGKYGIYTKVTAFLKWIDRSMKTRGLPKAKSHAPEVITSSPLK
parameter: kcat/KM for FX activation (Xase: FVIIIa, PC/PS vesicles, Ca2+) (M⁻¹ s⁻¹)
Numbers only, in M⁻¹ s⁻¹.

Hello, please tell me recorded kcat/KM for FX activation (Xase: FVIIIa, PC/PS vesicles, Ca2+) for this one: FIXa-Y155F/K247N/N249S/R318Y/T343R (protein) chain 1: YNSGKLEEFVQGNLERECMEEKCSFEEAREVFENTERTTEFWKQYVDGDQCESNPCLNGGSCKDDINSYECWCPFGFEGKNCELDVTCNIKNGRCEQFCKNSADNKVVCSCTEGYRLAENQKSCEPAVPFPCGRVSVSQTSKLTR chain 2: VVGGEDAKPGQFPWQVVLNGKVDAFCGGSIVNEKWIVTAAHCVETGVKITVVAGEHNIEETEHTEQNRSVIRIIPHHNYNAAINKYNHDIALLELDEPLVLNSYVTPICIADKEYTNIFLKFGSGYVSGWGRVFHKGYSALVLQYLRVPLVDRATCLRSTKFRIYNNMFCAGFHEGGRDSCQGDSGGPHVTEVEGTSFLTGIISWGEECAMKGKYGIYTKVSRYVNWIKEKTKLT
2.5e+08

Hello, please tell me recorded kcat/KM for FX activation (Xase: FVIIIa, PC/PS vesicles, Ca2+) for this one: FIXa-Y155F/K247N/N249S/R338E/R403E (protein) chain 1: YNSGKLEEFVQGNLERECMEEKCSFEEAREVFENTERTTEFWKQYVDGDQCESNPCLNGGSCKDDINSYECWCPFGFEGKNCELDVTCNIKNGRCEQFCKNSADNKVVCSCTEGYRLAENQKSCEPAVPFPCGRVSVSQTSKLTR chain 2: VVGGEDAKPGQFPWQVVLNGKVDAFCGGSIVNEKWIVTAAHCVETGVKITVVAGEHNIEETEHTEQNRSVIRIIPHHNYNAAINKYNHDIALLELDEPLVLNSYVTPICIADKEYTNIFLKFGSGYVSGWGRVFHKGRSALVLQYLRVPLVDRATCLESTKFTIYNNMFCAGFHEGGRDSCQGDSGGPHVTEVEGTSFLTGIISWGEECAMKGKYGIYTKVSEYVNWIKEKTKLT
1.4e+08

From here, focus on the item given below.
Hello, please tell me recorded kcat/KM for FX activation (Xase: FVIIIa, PC/PS vesicles, Ca2+) for this one: FIXa-Y155F/K247N/N249S/R318Y/T343R/E410N (protein) chain 1: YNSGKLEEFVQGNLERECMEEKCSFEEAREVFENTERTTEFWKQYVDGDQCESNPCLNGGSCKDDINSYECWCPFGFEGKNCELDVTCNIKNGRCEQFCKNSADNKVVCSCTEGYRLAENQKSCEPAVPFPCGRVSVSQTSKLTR chain 2: VVGGEDAKPGQFPWQVVLNGKVDAFCGGSIVNEKWIVTAAHCVETGVKITVVAGEHNIEETEHTEQNRSVIRIIPHHNYNAAINKYNHDIALLELDEPLVLNSYVTPICIADKEYTNIFLKFGSGYVSGWGRVFHKGYSALVLQYLRVPLVDRATCLRSTKFRIYNNMFCAGFHEGGRDSCQGDSGGPHVTEVEGTSFLTGIISWGEECAMKGKYGIYTKVSRYVNWIKNKTKLT
3.1e+08
